Cited source for all entries: patent US20250326771A1

Molecular target: cIAP1-BIR2 (Homo sapiens (Human), UniProt Q13490)
Sequence (Q13490 173-257): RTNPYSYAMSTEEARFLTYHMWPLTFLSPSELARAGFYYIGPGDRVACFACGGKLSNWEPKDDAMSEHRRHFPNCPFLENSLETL
Assay: BIR binding assay (FRET competition), cIAP1 BIR2
Procedure: The BIR domain binding assays are FRET based competition assays that utilize His-tagged versions of each of the BIR2 and BIR3 domains from cIAP1, cIAP2, and XIAP (each domain assayed separately) each at a custom optimal concentration and a probe, 200 nM SMAC/DIABLO peptide […] labelled with AlexaFluor647 (part #crb 1110326h, Discovery Peptides). The assay is conducted in 50 mM HEPES, […], 1 mM CHAPS, 5% Glycerol, 1 mM DTT, in dI water with a final pH of 7.4 and final volume of 20 uL. […]
pIC50: −log10 of the molar value.
Catalogue of pIC50 values

| Substance smiles | pIC50 |
| --- | --- |
| C[C@@H]1CN(CC(=O)N2CC(C)(C)c3[nH]c(=O)c(Cc4ccc(F)cc4)cc32)[C@@H](CN2CCN(C(=O)COCCOCC(=O)N3CCN(C[C@H]4CN[C@H](C)CN4CC(=O)N4CC(C)(C)c5[nH]c(=O)c(Cc6ccc(F)cc6)cc54)[C@H](C)C3)C[C@H]2C)CN1 | 5.00 to 5.50 |
| C[C@@H]1CN(CC(=O)N2CC(C)(C)c3[nH]c(=O)c(Cc4ccc(F)cc4)cc32)[C@@H](CN2CCN(CCCCCCCCCCN3CCN(C[C@H]4CN[C@H](C)CN4CC(=O)N4CC(C)(C)c5[nH]c(=O)c(Cc6ccc(F)cc6)cc54)[C@H](C)C3)C[C@H]2C)CN1 | 6.00 to 7.65 |
| C[C@@H]1CN(CC(=O)N2CC(C)(C)c3[nH]c(=O)c(Cc4c(Cl)cc(Cl)cc4Cl)cc32)[C@@H](CN2CCO[C@H](C(=O)NCc3ccc(CNC(=O)[C@@H]4CN(C[C@H]5CN[C@H](C)CN5CC(=O)N5CC(C)(C)c6[nH]c(=O)c(Cc7c(Cl)cc(Cl)cc7Cl)cc65)CCO4)cc3)C2)CN1 | 4.29 to 5.00 |

API: the following record is the query input.
Input line: Find the measured pIC50 of `C[C@@H]1CN(CC(=O)N2CC(C)(C)c3[nH]c(=O)c(Cc4ccc(F)cc4)cc32)[C@@H](CN2CCO[C@H](COc3ccc(C#N)c(OC[C@@H]4CN(C[C@H]5CN[C@H](C)CN5CC(=O)N5CC(C)(C)c6[nH]c(=O)c(Cc7ccc(F)cc7)cc65)CCO4)c3)C2)CN1` and report it.
Output line: 5.50 to 6.00
